Value source: the supplement of paper PMC10065799

Entries and their measured phosphorylation enrichment follow.
# Experimental System: MERTK (UniProt Q12866)
# Sequence (Q12866 whole entry, looked up): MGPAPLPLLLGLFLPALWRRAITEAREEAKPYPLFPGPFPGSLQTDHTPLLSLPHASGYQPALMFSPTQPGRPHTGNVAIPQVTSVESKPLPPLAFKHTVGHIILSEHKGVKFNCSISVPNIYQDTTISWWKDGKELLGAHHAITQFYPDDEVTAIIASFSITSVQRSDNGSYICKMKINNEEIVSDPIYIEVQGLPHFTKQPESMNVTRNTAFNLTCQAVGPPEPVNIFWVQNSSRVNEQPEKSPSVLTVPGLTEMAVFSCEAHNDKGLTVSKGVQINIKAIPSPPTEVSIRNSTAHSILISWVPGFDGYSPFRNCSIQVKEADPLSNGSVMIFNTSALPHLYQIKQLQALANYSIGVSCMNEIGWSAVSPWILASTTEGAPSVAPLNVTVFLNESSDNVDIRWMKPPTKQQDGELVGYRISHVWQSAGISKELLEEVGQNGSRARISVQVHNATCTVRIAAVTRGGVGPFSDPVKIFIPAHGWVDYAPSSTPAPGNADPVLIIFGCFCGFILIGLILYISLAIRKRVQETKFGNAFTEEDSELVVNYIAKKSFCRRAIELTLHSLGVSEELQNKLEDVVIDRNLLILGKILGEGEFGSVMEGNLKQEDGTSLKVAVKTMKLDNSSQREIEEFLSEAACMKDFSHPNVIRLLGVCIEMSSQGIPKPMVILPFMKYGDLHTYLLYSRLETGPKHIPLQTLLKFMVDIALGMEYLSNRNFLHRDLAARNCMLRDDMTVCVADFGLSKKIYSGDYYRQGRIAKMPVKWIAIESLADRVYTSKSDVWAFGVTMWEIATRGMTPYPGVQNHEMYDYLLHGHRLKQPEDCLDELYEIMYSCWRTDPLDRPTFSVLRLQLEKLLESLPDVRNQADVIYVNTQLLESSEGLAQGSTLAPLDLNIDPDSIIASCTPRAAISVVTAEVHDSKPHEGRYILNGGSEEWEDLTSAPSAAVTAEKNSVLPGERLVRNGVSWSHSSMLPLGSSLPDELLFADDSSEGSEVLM
# Method Description: phosphorylation enrichment, bacterial display (enrichment ratio); higher = better substrate or ligand; peptides without Tyr show the background
// return a plain number; no unit text

QUERY: Can you share its phosphorylation enrichment? I mean this sequence: MDNQEYKDAYT [BRDT_Y331_K336T]
RESULT: 0.586

QUERY: Using the record for WSQAMYPDLGP [STARD8_Y330_R327Q] , report its phosphorylation enrichment.
RESULT: 0.393

QUERY: Fill in: phosphorylation enrichment of EILLSYPRTGF [TGM1_Y365_L366P_YF] is ___
RESULT: 0.411

QUERY: Value lookup for phosphorylation enrichment; key = ILTYKYLQIPM [KIT_Y547_K550I]
RESULT: 0.406

QUERY: Record request: phosphorylation enrichment value, item KRRGPYEMSPS [PLPP7_Y172_T174M]
RESULT: 0.402

QUERY: What phosphorylation enrichment value was documented for this sequence, AEVDTYCRHNY [HLA-DRB1_Y107_A103E] ?
RESULT: 0.391

QUERY: I'd like to know its phosphorylation enrichment. The sequence in question is RFVTRHIFNRE [HLA-DQB1_Y62_Y62H_YF]
RESULT: 0.583

====

// reported SH2 binding enrichment per item
# Experimental System: Grb2 SH2 (UniProt P62993)
# Sequence (P62993 whole entry, looked up): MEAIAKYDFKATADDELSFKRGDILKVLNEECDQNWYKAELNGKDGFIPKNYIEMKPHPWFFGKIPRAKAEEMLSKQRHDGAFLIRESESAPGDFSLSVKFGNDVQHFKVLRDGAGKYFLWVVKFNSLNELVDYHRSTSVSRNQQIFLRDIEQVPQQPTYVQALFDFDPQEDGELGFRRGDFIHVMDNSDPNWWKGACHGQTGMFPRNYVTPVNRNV
# Method Description: SH2 binding enrichment of the phosphorylated peptide, bacterial display (enrichment ratio); higher = better substrate or ligand; peptides without Tyr show the background
The reply should be a number, written without any unit.

• QKTGDYFDLFG [PTPN11_Y62_N58K_YF] = 1.02

QUERY: Please give the measured SH2 binding enrichment for this sequence: DPLLTYLFPPK [LMNA_Y481_R482L]
RESULT: 0.991

QUERY: Name the reported SH2 binding enrichment value associated with the sequence VDFQPYRKHKF [TEX37_Y28_YF]
RESULT: 0.991

QUERY: Need SH2 binding enrichment of TFLRTYTDTMQ [TSPAN7_Y124_A127T] , thanks.
RESULT: 0.995

====

# Experimental System: MERTK (UniProt Q12866)
# Method Description: phosphorylation enrichment, bacterial display (enrichment ratio); higher = better substrate or ligand; peptides without Tyr show the background
Label Y when phosphorylation enrichment is at or above 0.4; anything below gets N.

Please review the entries below; each comes with its answer.
• EFGFRYELVQF [UGGT2_Y1289_Y1285F_YF] = N
• RHFTGYRIELQ [INSR_Y818] = Y
• LKKLEYLNLPL [LRRC6_Y70_A74P] = Y
• VRTGIYHGREP [PIK3CA_Y361_G364R] = N
• ECKHLYSRKEG [PTPN11_Y263_L261H] = N

// switching to the query sequence
QUERY: Decide: is the reported value of phosphorylation enrichment for CTSIHYNFMCN [TP53_Y234_T231S_YF] equal to or greater than 0.4?
RESULT: N

====

# Experimental System: EPHB1 (UniProt P54762)
# Sequence (P54762 whole entry, looked up): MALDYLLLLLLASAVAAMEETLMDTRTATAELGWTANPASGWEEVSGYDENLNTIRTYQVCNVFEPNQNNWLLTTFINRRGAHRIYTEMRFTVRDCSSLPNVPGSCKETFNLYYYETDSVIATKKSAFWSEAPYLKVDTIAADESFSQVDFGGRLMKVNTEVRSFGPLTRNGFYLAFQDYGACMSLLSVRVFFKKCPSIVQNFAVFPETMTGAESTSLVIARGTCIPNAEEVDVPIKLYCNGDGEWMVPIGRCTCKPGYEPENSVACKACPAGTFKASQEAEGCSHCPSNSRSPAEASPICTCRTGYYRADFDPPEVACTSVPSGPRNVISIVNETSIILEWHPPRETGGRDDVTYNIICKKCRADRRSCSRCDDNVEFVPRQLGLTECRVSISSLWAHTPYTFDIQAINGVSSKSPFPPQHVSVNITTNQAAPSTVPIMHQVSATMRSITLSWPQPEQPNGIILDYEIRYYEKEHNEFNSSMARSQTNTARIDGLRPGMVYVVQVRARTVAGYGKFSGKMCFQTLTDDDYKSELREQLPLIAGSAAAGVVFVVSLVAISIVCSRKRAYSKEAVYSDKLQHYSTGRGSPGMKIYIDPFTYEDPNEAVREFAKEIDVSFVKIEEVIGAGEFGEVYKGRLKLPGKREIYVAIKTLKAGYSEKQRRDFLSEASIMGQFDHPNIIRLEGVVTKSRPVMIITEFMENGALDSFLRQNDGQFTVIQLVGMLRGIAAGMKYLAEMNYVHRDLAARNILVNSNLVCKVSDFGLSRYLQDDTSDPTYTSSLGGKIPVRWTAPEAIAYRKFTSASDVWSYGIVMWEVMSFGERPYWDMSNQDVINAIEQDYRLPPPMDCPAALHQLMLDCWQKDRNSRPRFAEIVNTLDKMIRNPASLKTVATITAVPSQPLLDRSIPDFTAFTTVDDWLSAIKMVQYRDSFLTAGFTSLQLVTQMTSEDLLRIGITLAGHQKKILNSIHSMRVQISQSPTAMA
# Method Description: phosphorylation enrichment, bacterial display (enrichment ratio); higher = better substrate or ligand; peptides without Tyr show the background
So basically: phosphorylation enrichment at 0.7 or higher? That is YES. Lower than 0.7? That is NO.

Solved cases (5 shown):
- YAREGYSALPQ [SARS2_Y52]: NO
- PQGVGYPPQPQ [EP300_Y2219_Q2223P]: NO
- TEQDPYNSIVR [MMUT_Y364_N366S]: NO
- RAFRHYLLKQK [SCN2A_Y1919_R1918H_YF]: YES
- AHAGKYGAEAL [HBA1_Y25_E24K]: NO

QUERY: Is phosphorylation enrichment for EPVSDYINASI [PTPN11_Y304_N308S] at or above 0.7?
RESULT: NO

QUERY: Would you say NPSFNYEIVNR [DYNC1H1_Y3379_YF] shows phosphorylation enrichment at minimum 0.7?
RESULT: YES

QUERY: Decide: phosphorylation enrichment of CNTIHYNFMCN [TP53_Y234_T230N_YF] >= 0.7?
RESULT: NO

QUERY: I'd appreciate it if you could say whether EFQLPYFNMVP [BMPR1A_Y457_YF] has phosphorylation enrichment at least equal to 0.7.
RESULT: NO

QUERY: Could you please find out whether ISITPYPAILH [IFT80_Y588] has phosphorylation enrichment that meets 0.7 or exceeds it?
RESULT: NO

====

# Experimental System: Hck (UniProt P08631)
# Sequence (P08631 whole entry, looked up): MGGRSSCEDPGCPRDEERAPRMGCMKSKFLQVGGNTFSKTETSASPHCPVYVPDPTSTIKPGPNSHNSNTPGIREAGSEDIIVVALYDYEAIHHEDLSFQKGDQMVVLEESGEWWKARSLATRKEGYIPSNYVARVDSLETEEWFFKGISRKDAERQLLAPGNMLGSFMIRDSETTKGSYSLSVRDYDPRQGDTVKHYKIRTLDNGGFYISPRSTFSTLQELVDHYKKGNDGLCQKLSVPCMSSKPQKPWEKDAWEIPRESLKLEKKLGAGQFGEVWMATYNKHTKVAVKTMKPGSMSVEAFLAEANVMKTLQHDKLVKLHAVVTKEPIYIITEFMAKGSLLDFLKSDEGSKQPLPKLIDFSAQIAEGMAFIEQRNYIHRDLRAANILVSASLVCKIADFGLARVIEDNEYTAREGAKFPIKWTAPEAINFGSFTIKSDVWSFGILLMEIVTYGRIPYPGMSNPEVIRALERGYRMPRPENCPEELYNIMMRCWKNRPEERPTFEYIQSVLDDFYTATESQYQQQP
# Method Description: phosphorylation enrichment, bacterial display (enrichment ratio); higher = better substrate or ligand; peptides without Tyr show the background
Quick list: phosphorylation enrichment per entry.
In your answer, state the number alone without any accompanying words.

Here is how some sequences turned out for phosphorylation enrichment.
• NSVLVYRNGDP [DCDC2_Y22_K17N] = 0.492
• DTQNSYWCATS [TSC1_Y304_G305W] = 0.518

QUERY: Sample AARVSYWLASG [DCHS1_Y1582_R1583W] — what was its phosphorylation enrichment?
RESULT: 0.555

QUERY: What does the record list as phosphorylation enrichment for PTTKTYFPHFD [HBA1_Y43] ?
RESULT: 0.352

QUERY: Can you share its phosphorylation enrichment? I mean this sequence: PFQGAYLEINK [MYO1B_Y967]
RESULT: 0.361

QUERY: Look up phosphorylation enrichment: MCDSHYLESRF [CLK1_Y56_S61F]
RESULT: 0.522

QUERY: Query: phosphorylation enrichment; subject: LLDGEYFTLQI [TP53_Y327_P322L]
RESULT: 2.24

QUERY: // returns reported phosphorylation enrichment for input LLSVAYKNVVG [YWHAG_Y49]
RESULT: 0.665

QUERY: Would you kindly share the measured phosphorylation enrichment for MLEVPYVDHNS [F10_Y384_R387H] ?
RESULT: 0.618

QUERY: Could you tell me which phosphorylation enrichment is on file for TTPGPYRSIFF [MPG_Y71_YF] ?
RESULT: 0.521

QUERY: Entry under review: VGQRPYRPLPE [REEP3_Y170_Q171R] . Reported phosphorylation enrichment?
RESULT: 0.4

QUERY: phosphorylation enrichment lookup needed for AHARMYGVLPW [PLP1_Y207_D203H] , thanks.
RESULT: 3.4

QUERY: Look at this sequence and give its reported phosphorylation enrichment. RNNTEYVRDIG [MUSK_Y577_I575T]
RESULT: 0.428

QUERY: Which phosphorylation enrichment value is on record for SWDKRYCEAGC [ITGA2B_Y197_F202C] ?
RESULT: 0.417

QUERY: What measured phosphorylation enrichment goes with MRALIYNSSTV [PLEKHA7_Y243_A248V] ?
RESULT: 0.754

QUERY: Fill in: phosphorylation enrichment of SLLLSYFLIKW [NUP160_Y773_P768S_YF] is ___
RESULT: 0.654

QUERY: Field request: phosphorylation enrichment | item: IQRSLYDCPAS [PDGFRA_Y762_R764C]
RESULT: 2.25

QUERY: Given the sequence EILLSYPRTGF [TGM1_Y365_L366P_YF] , what is its reported phosphorylation enrichment?
RESULT: 0.534

====

# Experimental System: Jak2 (UniProt O60674)
# Sequence (O60674 whole entry, looked up): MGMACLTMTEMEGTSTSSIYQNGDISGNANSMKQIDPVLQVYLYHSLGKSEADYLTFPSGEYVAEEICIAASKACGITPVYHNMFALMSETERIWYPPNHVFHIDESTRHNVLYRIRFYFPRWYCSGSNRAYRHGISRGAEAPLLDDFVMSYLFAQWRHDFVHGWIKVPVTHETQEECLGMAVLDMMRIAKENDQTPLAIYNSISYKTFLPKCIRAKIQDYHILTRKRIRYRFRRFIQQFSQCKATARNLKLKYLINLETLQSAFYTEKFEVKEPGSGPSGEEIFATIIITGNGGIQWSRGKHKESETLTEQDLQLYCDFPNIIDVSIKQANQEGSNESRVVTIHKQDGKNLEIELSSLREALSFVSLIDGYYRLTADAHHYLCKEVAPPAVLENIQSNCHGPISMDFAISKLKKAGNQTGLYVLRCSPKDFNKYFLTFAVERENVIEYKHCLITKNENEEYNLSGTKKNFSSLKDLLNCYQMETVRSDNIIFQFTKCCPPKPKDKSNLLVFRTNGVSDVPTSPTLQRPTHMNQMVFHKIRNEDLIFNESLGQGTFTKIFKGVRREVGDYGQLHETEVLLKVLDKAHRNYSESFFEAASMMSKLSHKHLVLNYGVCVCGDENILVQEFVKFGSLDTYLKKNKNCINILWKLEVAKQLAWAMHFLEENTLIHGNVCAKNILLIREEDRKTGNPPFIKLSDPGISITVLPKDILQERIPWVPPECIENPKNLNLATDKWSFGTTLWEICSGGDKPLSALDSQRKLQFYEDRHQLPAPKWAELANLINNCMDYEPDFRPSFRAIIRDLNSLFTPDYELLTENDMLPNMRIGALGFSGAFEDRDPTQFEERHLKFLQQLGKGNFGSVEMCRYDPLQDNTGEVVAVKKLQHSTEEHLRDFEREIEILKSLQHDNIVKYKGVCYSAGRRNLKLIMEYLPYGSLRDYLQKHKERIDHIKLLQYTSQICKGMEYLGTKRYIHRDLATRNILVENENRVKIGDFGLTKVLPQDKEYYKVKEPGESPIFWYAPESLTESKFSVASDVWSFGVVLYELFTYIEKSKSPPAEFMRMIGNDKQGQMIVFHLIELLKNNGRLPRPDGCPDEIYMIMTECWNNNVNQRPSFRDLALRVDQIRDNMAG
# Method Description: phosphorylation enrichment, bacterial display (enrichment ratio); higher = better substrate or ligand; peptides without Tyr show the background
Quick rule: phosphorylation enrichment of at least 0.8 means T, below that means F.

Worked examples, 10 sequences total:
* QQIFTYDSGIH [JUP_Y22_T19I_YF] | T
* KKRSSYGNSSD [SELENOK_Y52_R50S] | F
* DLLMQYPKAQG [FAM83C_Y600] | F
* GTGTAYLCGVK [ALPL_Y117_A114G] | F
* QQPGPYDRPGA [HNRNPH2_Y210_R206Q] | F
* AHPIIYTIIEA [PYKtide_no-pT_2014] | T
* SVMVPYEPPEV [TP53_Y220_V217M] | T
* RHTRSYDYMEG [FGF7_Y56] | F
* VMAVAYRLAEQ [HK1_Y461_T457M] | T
* HPWPQYTTRAP [FNDC1_Y1281] | T

QUERY: Confirm if phosphorylation enrichment reported for the sequence HSSPVYVGRVV [TGM2_Y219_R214H] is 0.8 or above.
RESULT: T

QUERY: Determine whether measured phosphorylation enrichment meets or exceeds 0.8 for HNQDGYSYLSR [LDLR_Y845_P848L]
RESULT: F

====

# Experimental System: SHP2-C SH2
# Method Description: SH2 binding enrichment of the phosphorylated peptide, bacterial display (enrichment ratio); higher = better substrate or ligand; peptides without Tyr show the background
Quantity Kind: SH2 binding enrichment
Enter a number only.

Completed entries (count: 2):
• GDFFCYLAEVA [YWHAG_Y133_R132C_YF] = 0.701
• TEQDPYNSIVR [MMUT_Y364_N366S] = 0.711

QUERY: Which SH2 binding enrichment is reported with SHP2-C SH2 for this entry: NCLREYVAGRF [CRB1_Y711] ?
RESULT: 0.684
